Where these numbers come from: PubChem BioAssay AID2060603

molecules and their reported viability, T/C
- Test system: 422866-222-R5-J1-PDC spheroid viability
- assay-summary: Anticancer human tumor 422866-222-R5-J1-PDC patient-derived pancreatic adenocarcinoma cell line growth inhibition [CLK]
- run-parameters: second compound 0.316 µM; first compound 0.1 µM; stronger effect = lower value; spheroids with HUVEC and MSC
Kindly provide the numeric value in % only, without the unit symbol.

**Query** Requested read-out: viability, T/C. Entry: Cn1ncnc1[C@H]1c2n[nH]c(=O)c3cc(F)cc(c23)N[C@@H]1c1ccc(F)cc1 + CNC(=O)c1ccc(Nc2nc(OC3CCCC3)c3c(-c4ccc5nc(C)oc5c4)c[nH]c3n2)c(OC)c1
**Result** 64.7

**Query** Can you look up the measured viability, T/C of COc1ccc([C@@H](O)c2cc(-c3ncnc4cc(N5CCOCC5)ccc34)c(F)cc2Cl)nn1 + CNC(=O)c1ccc(Nc2nc(OC3CCCC3)c3c(-c4ccc5nc(C)oc5c4)c[nH]c3n2)c(OC)c1 for me?
**Result** 63.1

**Query** viability, T/C lookup needed for CC1(C)CCC(CN2CCN(c3ccc(C(=O)NS(=O)(=O)c4ccc(NCC5CCOCC5)c([N+](=O)[O-])c4)c(Oc4cnc5[nH]ccc5c4)c3)CC2)=C(c2ccc(Cl)cc2)C1 + CN1CCN(c2cc(C(=O)Nc3cc4cc(-c5cnn(C)c5)ccc4cn3)ccn2)CC1 , thanks.
**Result** 107

----------
- Tested on: 422866-222-R5-J1-PDC spheroid viability
- assay-summary: Anticancer human tumor 422866-222-R5-J1-PDC cell line growth inhibition [CLK];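 further: spheroids exposed to agents for seven days before readout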
- run-parameters: curve of first compound; second compound 3.16 µM; spheroids with HUVEC and MSC
endpoint: IC50

Take a look at these entries with their results.
- compound: "C=CC(=O)Nc1cc(Nc2nccc(-c3cn(C)c4ccccc34)n2)c(OC)cc1N(C)CCN(C)C + CNC(=O)c1ccc(Nc2nc(OC3CCCC3)c3c(-c4ccc5nc(C)oc5c4)c[nH]c3n2)c(OC)c1"
  measurement-target: "422866-222-R5-J1-PDC spheroid viability"
  IC50: "> 300 nM"
- compound: "COc1c(OCCCN2CCOCC2)ccc2c3n(c(=NC(=O)c4cnc(N)nc4)nc12)CCN3 + CN1CCN(c2cc(C(=O)Nc3cc4cc(-c5cnn(C)c5)ccc4cn3)ccn2)CC1"
  measurement-target: "422866-222-R5-J1-PDC spheroid viability"
  IC50: "< 3.16 nM"
- compound: "C=CC(=O)Nc1cc(Nc2nccc(-c3cn(C)c4ccccc34)n2)c(OC)cc1N(C)CCN(C)C + CN1CCN(c2cc(C(=O)Nc3cc4cc(-c5cnn(C)c5)ccc4cn3)ccn2)CC1"
  measurement-target: "422866-222-R5-J1-PDC spheroid viability"
  IC50: "< 0.949 nM"

**Query** Requested field: IC50. Item: CCN1CCN(Cc2ccc(Nc3ncc(F)c(-c4cc(F)c5nc(C)n(C(C)C)c5c4)n3)nc2)CC1 + CNC(=O)c1ccc(Nc2nc(OC3CCCC3)c3c(-c4ccc5nc(C)oc5c4)c[nH]c3n2)c(OC)c1
**Result** > 1000 nM

**Query** Name the reported IC50 value associated with the compound O=C(c1cc(Cc2n[nH]c(=O)c3ccccc23)ccc1F)N1CCN(C(=O)C2CC2)CC1 + CN1CCN(c2cc(C(=O)Nc3cc4cc(-c5cnn(C)c5)ccc4cn3)ccn2)CC1
**Result** < 31.6 nM

----------
- Tested on: 422866-222-R5-J1-PDC spheroid viability
- assay-summary: Anticancer human tumor 422866-222-R5-J1-PDC cell line growth inhibition [CLK];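 further: spheroids exposed to agents for seven days before readout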
- run-parameters: second compound 0.0316 µM; first compound 3.16 µM; stronger effect = lower value; spheroids with HUVEC and MSC
Entries and their measured viability, T/C follow.

Consider the following illustrative entries.
- molecule: "C=CC(=O)N1CCN(c2nc(=O)n(-c3c(C)ccnc3C(C)C)c3nc(-c4c(O)cccc4F)c(F)cc23)C(C)C1 (stereo not given) + CN1CCN(c2cc(C(=O)Nc3cc4cc(-c5cnn(C)c5)ccc4cn3)ccn2)CC1"
  viability, T/C: "29%"
- molecule: "CC1COCCN1c1cc(C2(S(C)(=N)=O)CC2)nc(-c2ccnc3[nH]ccc23)n1 (stereo not given) + CNC(=O)c1ccc(Nc2nc(OC3CCCC3)c3c(-c4ccc5nc(C)oc5c4)c[nH]c3n2)c(OC)c1"
  viability, T/C: "59.6%"
- molecule: "CC(CO)NC(=O)c1cc(-c2ccc(Cl)cc2)nn(-c2cnn(C)c2)c1=O (stereo not given) + CN1CCN(c2cc(C(=O)Nc3cc4cc(-c5cnn(C)c5)ccc4cn3)ccn2)CC1"
  viability, T/C: "106%"
- molecule: "C=C(F)C(=O)N1CCN(c2nc(OCC3CCCN3C)nc3c2CCN(c2cccc4cccc(Cl)c24)C3)CC1CC#N (stereo not given) + CN1CCN(c2cc(C(=O)Nc3cc4cc(-c5cnn(C)c5)ccc4cn3)ccn2)CC1"
  viability, T/C: "15.9%"

**Query** Lab request: please report viability, T/C under test system 422866-222-R5-J1-PDC spheroid viability for CC1(C)CCC(CN2CCN(c3ccc(C(=O)NS(=O)(=O)c4ccc(NCC5CCOCC5)c([N+](=O)[O-])c4)c(Oc4cnc5[nH]ccc5c4)c3)CC2)=C(c2ccc(Cl)cc2)C1 + CN1CCN(c2cc(C(=O)Nc3cc4cc(-c5cnn(C)c5)ccc4cn3)ccn2)CC1
**Result** 113%

----------
- Test system: 422866-222-R5-J1-PDC spheroid viability
- assay-summary: Anticancer human tumor 422866-222-R5-J1-PDC cell line growth inhibition [CLK];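 further: spheroids exposed to agents for seven days before readout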
- run-parameters: second compound 3.16 µM; first compound 0.0316 µM; stronger effect = lower value; spheroids with HUVEC and MSC
hey, just use YES if measured viability, T/C is less than 10%, otherwise NO

- compound: "Nc1ccn(C2OC(CO)C(O)C2(F)F)c(=O)n1 (stereo unspecified) + CN1CCN(c2cc(C(=O)Nc3cc4cc(-c5cnn(C)c5)ccc4cn3)ccn2)CC1"
  class-name: "YES"
- compound: "COC1C=CCC(C)C(C)S(=O)(=O)NC(=O)c2ccc3c(c2)N(CC2CCC21)CC1(CCCc2cc(Cl)ccc21)CO3 (stereo unspecified) + CNC(=O)c1ccc(Nc2nc(OC3CCCC3)c3c(-c4ccc5nc(C)oc5c4)c[nH]c3n2)c(OC)c1"
  class-name: "NO"
- compound: "CC(CO)NC(=O)c1cc(-c2ccc(Cl)cc2)nn(-c2cnn(C)c2)c1=O (stereo unspecified) + CN1CCN(c2cc(C(=O)Nc3cc4cc(-c5cnn(C)c5)ccc4cn3)ccn2)CC1"
  class-name: "NO"
- compound: "CC(Nc1ccc2c(c1)OCCn1cc(N3C(=O)OCC3C(F)F)nc1-2)C(N)=O (stereo unspecified) + CN1CCN(c2cc(C(=O)Nc3cc4cc(-c5cnn(C)c5)ccc4cn3)ccn2)CC1"
  class-name: "YES"

**Query** Determine whether this compound shows viability, T/C lower than 10% (ties excluded): CCN1CCN(Cc2ccc(Nc3ncc(F)c(-c4cc(F)c5nc(C)n(C(C)C)c5c4)n3)nc2)CC1 + CNC(=O)c1ccc(Nc2nc(OC3CCCC3)c3c(-c4ccc5nc(C)oc5c4)c[nH]c3n2)c(OC)c1
**Result** NO

**Query** Please check: viability, T/C for O=c1[nH]cc(F)c(=O)[nH]1 + CN1CCN(c2cc(C(=O)Nc3cc4cc(-c5cnn(C)c5)ccc4cn3)ccn2)CC1 , strictly under 10% or not?
**Result** YES

----------
- System: 422866-222-R5-J1-PDC spheroid viability
- assay-summary: Anticancer human tumor 422866-222-R5-J1-PDC cell line growth inhibition [CLK];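 further: spheroids exposed to agents for seven days before readout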
- run-parameters: second compound 0.316 µM; first compound 0.1 µM; stronger effect = lower value; spheroids with HUVEC and MSC
endpoint: viability, T/C (%)
Number in %, nothing else.

- compound: "CC1COCCN1c1cc(C2(S(C)(=N)=O)CC2)nc(-c2ccnc3[nH]ccc23)n1 (stereo not drawn) + CN1CCN(c2cc(C(=O)Nc3cc4cc(-c5cnn(C)c5)ccc4cn3)ccn2)CC1"
  measurement-target: "422866-222-R5-J1-PDC spheroid viability"
  meas-value: 85.8

**Query** I have this compound here, COc1cccc2c1C(=O)c1c(O)c3c(c(O)c1C2=O)CC(O)(C(=O)CO)CC3OC1CC(N)C(O)C(C)O1 (stereo not drawn) + CNC(=O)c1ccc(Nc2nc(OC3CCCC3)c3c(-c4ccc5nc(C)oc5c4)c[nH]c3n2)c(OC)c1 , and I need its recorded viability, T/C.
**Result** 47.1

**Query** Give its viability, T/C value. Item: CCN1CCN(Cc2ccc(Nc3ncc(F)c(-c4cc(F)c5nc(C)n(C(C)C)c5c4)n3)nc2)CC1 + CNC(=O)c1ccc(Nc2nc(OC3CCCC3)c3c(-c4ccc5nc(C)oc5c4)c[nH]c3n2)c(OC)c1
**Result** 59.3
